test system: MS2 coat protein; test: apparent KD of MS2 coat protein; designed switch direction (-1 OFF switch, 1 ON switch): 1; higher = weaker reporter binding; conditions: input ligand: FMN 200 uM
Would you please tag the item Fulfilled when its apparent KD of MS2 coat protein is 30 nM or above, and Not fulfilled when it is below?

construct.sequence: GAGGGACAGACCAACAUGAGGAUCACCCAUGUCCUCGCAGUUCAGGAUAUCCGGAGGUAGACGAAGGAGAAGGGAAGGUGAACC [AK SSNG3-V2-36] (Eterna round: R96, puzzle: Same State NG 3)
class: Fulfilled

Dear colleague, could you confirm whether CACGUCUCGGUAGGAUAUGAGGUGCCAUAGGGAACAGCCUAUGGACAUGAGGAUCACCCAUGUCCUCAGAAGGGCCGGACGUGA [Leonis] (Eterna round: R96, puzzle: Same State NG 2) has apparent KD of MS2 coat protein at or above 30 nM?
Not fulfilled

Dear colleague, could you confirm whether GUGGUCAGACAUGAGGAUCACCCAUGUGGAAUAAAUAAGGUCAAGGAUAUUGAAUAUAGGAUAUACAAGAAGGUGAGGUUGGUG (Eterna round: R96, puzzle: Same State NG 3) has apparent KD of MS2 coat protein at or above 30 nM?
Fulfilled

Dear colleague, could you confirm whether GCGGAACGGUGUGACAUGAGGAUCACCCAUGUAACCUCAUGUAAGGAUAUCGGGAAGAAGAAAACCGAGAAGGUACGGUGACGC [AK SSNG3-V2-29] (Eterna round: R96, puzzle: Same State NG 3) has apparent KD of MS2 coat protein at or above 30 nM?
Fulfilled

Dear colleague, could you confirm whether GACCGCGAGGAAGGAUAUGGAGCCUUAUUGGCUCCAGAAGGUCCAUAAAGGACAUGAGGAUCACCCAUGUGGGUUGGAGCGGUC [Fiskers NG1ss - 0] (Eterna round: R96, puzzle: Same State NG 1) has apparent KD of MS2 coat protein at or above 30 nM?
Fulfilled

====

test system: MS2 coat protein; assay: apparent KD of MS2 coat protein; designed switch direction (-1 OFF switch, 1 ON switch): -1; higher = weaker reporter binding; conditions: input ligand: none
experimental.readout: apparent KD of MS2 coat protein

Worked cases, answers included:
construct.sequence: GUAUGUGACGAGGAUAUCACCUUGUUACUUAGAUGAGAAGGCGUCACAUGAGGAUCACCCAUGUGAUGAAAAGA [EX6 A.14] (Eterna round: R97, puzzle: Exclusion 6)
reported.measurement: 21.4 nM

construct.sequence: CUUAAGUUAGGAUAUGCGCUACGGAAUCGUGGUUAUAGAUAGCAGAAGGAACUUGAGGAUCACCCAAGUAAAUA [Reerored] (Eterna round: R97, puzzle: Exclusion 4)
reported.measurement: 137 nM

API: the following record is the query input.
GAUGUGGGUUUUCAGAGUAACAUGAGGAUCACCCAUGUAGAAGUUGGAGGGAUCAAGCUUUUUGGUCGUCAUAUGUG [JR_SV3TOV1_Sub051] (Eterna round: R96, puzzle: Sensor v3, turn-off variant 1) has a reported apparent KD of MS2 coat protein of 588 nM

====

test system: MS2 coat protein; test: apparent KD of MS2 coat protein; designed switch direction (-1 OFF switch, 1 ON switch): -1; higher = weaker reporter binding; conditions: input ligand: none
experimental.readout: apparent KD of MS2 coat protein (nM)
Give bare numbers, in nM.

# map each sequence to its apparent KD of MS2 coat protein
1. UCAUGGUUAGAGGAUAUAUAAUUAGUCAGAACAAUAGAAGGCUAGACAUGAGGAUCACCCAUGUAUGUUGAGGU [JR_Ex6_Sub065] (Eterna round: R97, puzzle: Exclusion 6)
2. CAGUACUGAGGAUAUACAUGAGGAUCACCCAUGUGUUCCAGCGAGGAAACUAGCAAAAGUAGAAGGCAGUACUG [salish99_ex3_r3_077] (Eterna round: R96, puzzle: Exclusion 3)
3. GGUUGGCGAGGAUAUACAUGAGGAUCACCCAUGUGGUCCUGUGGCUGGUCUAAACUUUGUAGAAGGCGCGGGUC [salish99_ex3_r4_022] (Eterna round: R97, puzzle: Exclusion 3)
4. GUCCUGGUAGGAUAUGAGGUUCACGACAUGAGGAUCACCCAUGUGGCCGUGUCUCAUACUUCAGAAGGACCGACAG [Eternabot (L2) Solution 5] (Eterna round: R97, puzzle: Exclusion 5)

1: 89.4; 2: 18.5; 3: 78.1; 4: 15.7

With MS2 coat protein as the test system, UGGGAGGGAGGAUAUACGAAAGUUAUUCUCAUGUCAGACCCACAUGAGGAUCACCCAUGUAGAAGGCCCGGGUC [EX2 B.17] (Eterna round: R97, puzzle: Exclusion 2) showed apparent KD of MS2 coat protein of 203
